The values you see were collected from the supplement of paper PMC11208160.

Experiment: recombinant UMI read abundance after kanamycin selection (control-corrected) (log10(CPM+1)); higher = more efficient recombination; extreme values may be limits of the assay; sequences stand for … in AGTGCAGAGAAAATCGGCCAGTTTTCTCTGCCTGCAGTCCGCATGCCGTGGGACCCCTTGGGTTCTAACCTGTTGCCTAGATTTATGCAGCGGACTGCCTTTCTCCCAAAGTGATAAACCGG…AGGTTGGTTTCACT; site = the 11-nt donor
measure: recombinant UMI read abundance (log10)
The answer should be a number; do not append a unit.

[[record]]
seq = "CAGAGTCCATGGACCGGTTTTCCCGGTAATCCGTATTTGTT (site CGGAATCCTAA)"
datavalue = 0

[[record]]
seq = "TGTTCCTCATGGACCGGTTTTCCCGGTAATCCGTATTTGTA (site TGTTCCCCTTA)"
datavalue = 0.00558

[[record]]
seq = "AGCATAGCATGGACCGGTTTTCCCGGTAATCCGTATTTGTT (site AGCATAGCTAA)"
datavalue = 1.99

[[record]]
seq = "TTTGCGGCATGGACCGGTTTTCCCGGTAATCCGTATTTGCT (site TTTGCGTCTAG)"
datavalue = 0.00651

[[record]]
seq = "CGCGGACCATGGACCGGTTTTCCCGGTAATCCGTATTTGGG (site CGGGGACCTCC)"
datavalue = 0.0209


Let us move to another entry and its recombinant UMI read abundance (log10).
Query: # lookup: recombinant UMI read abundance (log10) of CCGTATACATGGACCGGTTTTCCCGGTAATCCGTATTTGCT (site CCGTGTACTAG)
Result: 0

----------
Assay: recombinant barcode read abundance after kanamycin selection (control-corrected) (log10(CPM+1)); higher = more efficient recombination; sequences stand for … in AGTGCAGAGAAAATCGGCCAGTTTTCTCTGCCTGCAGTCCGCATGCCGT…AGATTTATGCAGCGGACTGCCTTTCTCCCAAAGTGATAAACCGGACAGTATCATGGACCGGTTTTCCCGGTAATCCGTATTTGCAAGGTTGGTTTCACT; site = the 11-nt target
measure: recombinant barcode read abundance (log10)

[[record]]
seq = "TCGTGCCCTTGGGTTCTAACCTGTTGCTG (site TCGTGCCCTAA)"
datavalue = 0.0676

[[record]]
seq = "GGGTAAACTTGGGTTCTAACCTGTTGCCT (site GGGTAATCTAG)"
datavalue = 0.702

[[record]]
seq = "GAAGCTCCTTGGGTTCTAACCTGTTGCGT (site GAAGCTCCTAC)"
datavalue = 2.81

[[record]]
seq = "GAGGAGCCTTGGGTTCTAACCTGTTGCGT (site GAGGAGCCTAC)"
datavalue = 2.62


Query: So what does the record say about recombinant barcode read abundance (log10) for TACCGGCCTTGGGTTCTAACCTGTTGCTT (site TACCGGACTAC) ?
Result: 0.0691

----------
Assay: recombinant UMI read abundance after kanamycin selection (control-corrected) (log10(CPM+1)); higher = more efficient recombination; extreme values may be limits of the assay; sequences stand for … in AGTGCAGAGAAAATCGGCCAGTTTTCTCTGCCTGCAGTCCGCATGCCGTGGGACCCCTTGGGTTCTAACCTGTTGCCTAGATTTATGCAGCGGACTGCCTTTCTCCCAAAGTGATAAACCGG…AGGTTGGTTTCACT; site = the 11-nt donor
measure: recombinant UMI read abundance (log10)
Lab note: record the figure alone, no unit after it.

Query: Item CTCTACACATGGACCGGTTTTCCCGGTAATCCGTATTTGCA (site CTCTACACTCG) has what recorded recombinant UMI read abundance (log10)?
Result: 0.499

Query: Note, next up: CTTGTCTCATGGACCGGTTTTCCCGGTAATCCGTATTTGTA (site CTTATCTCTTA)
Result: 1.78

Query: Try AGGGAACCATGGACCGGTTTTCCCGGTAATCCGTATTTGAT (site AGGGAACCTAT) next.
Result: 0

Query: // repeat for TTCACCGCATGGACCGGTTTTCCCGGTAATCCGTATTTGCG (site TACACCGCTCG) and report
Result: 0.00969

Query: What would you report for ACTGTATCATGGACCGGTTTTCCCGGTAATCCGTATTTGCA (site ACCGTATCTTG) ?
Result: 1.91

----------
Assay: recombinant barcode read abundance after kanamycin selection (control-corrected) (log10(CPM+1)); higher = more efficient recombination; sequences stand for … in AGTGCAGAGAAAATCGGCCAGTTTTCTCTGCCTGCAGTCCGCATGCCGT…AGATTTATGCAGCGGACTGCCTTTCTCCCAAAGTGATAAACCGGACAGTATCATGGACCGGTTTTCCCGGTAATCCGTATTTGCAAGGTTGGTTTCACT; site = the 11-nt target
Categorize each record by its recombinant barcode read abundance (log10) using range A (below 0.06), range B (0.06 to below 0.3), range C (0.3 or more)

Recorded results for 5 sequences are shown here.
[[record]]
seq = "TAAACAGCTTGGGTTCTAACCTGTTGCCT (site TACACAGCTAG)"
assignedlabel = "range A"

[[record]]
seq = "GGTCGGACTTGGGTTCTAACCTGTTGCGT (site GGTCGGACTAC)"
assignedlabel = "range C"

[[record]]
seq = "CGAACCGCTTGGGTTCTAACCTGTTGCCT (site CCAACCGCTAG)"
assignedlabel = "range A"

[[record]]
seq = "TTAGCATCTTGGGTTCTAACCTGTTGCCT (site TTAGCATCTAG)"
assignedlabel = "range C"

[[record]]
seq = "ACATTGTCTTGGGTTCTAACCTGTTGCGG (site ACAATGTCTCC)"
assignedlabel = "range B"


Query: Classify this sequence: AGTTTCACTTGGGTTCTAACCTGTTGCTA (site AGTTTCACTTA)
Result: range B

Query: And for CGTAAACCTTGGGTTCTAACCTGTTGCGT (site CGTAAACCTAC) ?
Result: range C

Query: Can you handle AGACTCCCTTGGGTTCTAACCTGTTGCCT (site AGACTCCCTAG) next?
Result: range C

----------
Test: recombinant UMI read abundance after kanamycin selection (control-corrected) (log10(CPM+1)); higher = more efficient recombination; extreme values may be limits of the assay; sequences stand for … in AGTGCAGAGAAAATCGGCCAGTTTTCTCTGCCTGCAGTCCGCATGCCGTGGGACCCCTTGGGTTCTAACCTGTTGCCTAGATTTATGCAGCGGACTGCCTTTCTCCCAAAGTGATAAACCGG…AGGTTGGTTTCACT; site = the 11-nt donor
Recorded recombinant UMI read abundance (log10) by entry
Simply state the number, no unit and no words.

[[record]]
seq = "CGGTATCCATGGACCGGTTTTCCCGGTAATCCGTATTTGTT (site CGGCATCCTAA)"
datavalue = 0.493


Query: // returns reported recombinant UMI read abundance (log10) for input CCTAGAGCATGGACCGGTTTTCCCGGTAATCCGTATTTGAT (site CCTAGAGCTAT)
Result: 0.00624

Query: Proceed to AGGTGGGCATGGACCGGTTTTCCCGGTAATCCGTATTTGTG (site AGGTGGGCTCA)
Result: 1.56

Query: Ok, now GAACTAGCATGGACCGGTTTTCCCGGTAATCCGTATTTGGT (site CGTTGCCCTTA)
Result: 0.00867

Query: Similarly, CGTTAGCCATGGACCGGTTTTCCCGGTAATCCGTATTTGAG (site CGTTAGTCTCT) ?
Result: 0.737

----------
Assay: recombinant barcode read abundance after kanamycin selection (control-corrected) (log10(CPM+1)); higher = more efficient recombination; sequences stand for … in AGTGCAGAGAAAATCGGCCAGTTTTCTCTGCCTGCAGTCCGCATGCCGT…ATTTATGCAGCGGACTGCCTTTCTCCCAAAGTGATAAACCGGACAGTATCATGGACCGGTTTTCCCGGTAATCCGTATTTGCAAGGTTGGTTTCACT; site = the 11-nt target
measure: recombinant barcode read abundance (log10)
Answer as a number with no unit attached.

[[record]]
seq = "GCGCGACAGTGGGTTCTAACCTGTTGCTTAG [GCGCGACCTAA_LTGcore_AG_RTGcore_CT] (site GCGCGACCTAA) (LTG core: AG, RTG core: CT)"
datavalue = 0.642

[[record]]
seq = "AGTCTTAACTGGGTTCTAACCTGTTGCCAGT [AGTCTTACTTG_LTGcore_AC_RTGcore_AC] (site AGTCTTACTTG) (LTG core: AC, RTG core: AC)"
datavalue = 0.129


Moving on to the next sequence.
Query: Quick one: recombinant barcode read abundance (log10) of GAGGCCTGATGGGTTCTAACCTGTTGCCAAG [GAGGCCTCTTG_LTGcore_GA_RTGcore_CT] (site GAGGCCTCTTG) (LTG core: GA, RTG core: CT) ?
Result: 0.0459

----------
Assay: recombinant UMI read abundance after kanamycin selection (control-corrected) (log10(CPM+1)); higher = more efficient recombination; extreme values may be limits of the assay; sequences stand for … in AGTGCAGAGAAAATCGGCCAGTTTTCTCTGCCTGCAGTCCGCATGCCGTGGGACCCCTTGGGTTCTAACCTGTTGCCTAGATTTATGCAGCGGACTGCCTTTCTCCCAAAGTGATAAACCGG…AGGTTGGTTTCACT; site = the 11-nt donor
measure: recombinant UMI read abundance (log10)
Answer with a bare number; do not write a unit.

Some solved cases for reference:
[[record]]
seq = "GGCAAACCATGGACCGGTTTTCCCGGTAATCCGTATTTGAA (site GGCAAGCCTTT)"
datavalue = 0.00636

[[record]]
seq = "CCGTAACCATGGACCGGTTTTCCCGGTAATCCGTATTTGGT (site CCGTAACCTAC)"
datavalue = 0

[[record]]
seq = "GCGAACGCATGGACCGGTTTTCCCGGTAATCCGTATTTGCT (site GCGAACGCTAG)"
datavalue = 2.26

[[record]]
seq = "CGTTGAACATGGACCGGTTTTCCCGGTAATCCGTATTTGTT (site CGTAGAACTAA)"
datavalue = 0.00276

[[record]]
seq = "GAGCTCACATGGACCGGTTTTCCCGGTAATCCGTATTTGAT (site GAGCTCACTTT)"
datavalue = 0.125

[[record]]
seq = "ACTGCATCATGGACCGGTTTTCCCGGTAATCCGTATTTGGA (site ACTGCATCTTC)"
datavalue = 1.22

[[record]]
seq = "TAATGATCATGGACCGGTTTTCCCGGTAATCCGTATTTGGG (site TAATGACCTCC)"
datavalue = 0.00916

[[record]]
seq = "TGTTCCTCATGGACCGGTTTTCCCGGTAATCCGTATTTGTA (site TGTTCCTCTTA)"
datavalue = 1.06


Query: // returns reported recombinant UMI read abundance (log10) for input CACTTTGCATGGACCGGTTTTCCCGGTAATCCGTATTTGGA (site CACTTAGCTTC)
Result: 0.0269
